Quick reference: IC50 of the listed items.
measured_target: GPR173 (Homo sapiens, UniProt Q9NS66)
Sequence (Q9NS66 whole entry, species assumed): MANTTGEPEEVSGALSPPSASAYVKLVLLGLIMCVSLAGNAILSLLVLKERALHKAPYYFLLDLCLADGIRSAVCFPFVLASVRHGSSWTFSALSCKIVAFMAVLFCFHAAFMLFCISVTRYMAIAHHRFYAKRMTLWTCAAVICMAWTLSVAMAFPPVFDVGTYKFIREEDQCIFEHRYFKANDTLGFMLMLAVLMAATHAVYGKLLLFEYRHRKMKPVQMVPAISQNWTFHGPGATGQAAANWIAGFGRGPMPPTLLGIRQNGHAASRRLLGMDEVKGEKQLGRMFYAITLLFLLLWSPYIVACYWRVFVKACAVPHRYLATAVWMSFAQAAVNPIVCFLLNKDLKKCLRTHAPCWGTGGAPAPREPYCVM
procedure_text: Antagonism of CCK1R/2R antagonists to GPR173
recorded_metric: IC50 (nM)

compound=CNc1cccc(NC(=O)N[C@@H]2N=C(c3ccccn3)c3ccccc3N(CC(=O)C(C)(C)C)C2=O)c1 measured_target="GPR173 (Homo sapiens, UniProt Q9NS66)" readout_number=3100
compound="CCCCCN(CCCOC)C(=O)C(CCC(=O)O)NC(=O)c1ccc(Cl)c(Cl)c1 (stereo not shown) [Loxiglumide]" measured_target="GPR173 (Homo sapiens, UniProt Q9NS66)" readout_number=715
compound="CN1C(=O)[C@@H](NC(=O)c2cc3ccccc3[nH]2)N=C(c2ccccc2)c2ccccc21 [Devazepide]" measured_target="GPR173 (Homo sapiens, UniProt Q9NS66)" readout_number=12.3
compound=Cc1cccc(NC(=O)N[C@@H]2N=C(c3ccccc3)c3ccccc3N(C)C2=O)c1 measured_target="GPR173 (Homo sapiens, UniProt Q9NS66)" readout_number=16800
